assay: NCI Yeast Anticancer Drug Screen. Data for the mlh1 rad18 strain (AID 175); settings: S. cerevisiae mlh1 rad18 strain growth inhibition; at 50.0 µM; active compounds read high
Compounds without any hit were thinned out: in the full panel of roughly 79,000, 15% have a hit.
Listed below: growth inhibition values for each entry.
Reply numerically in %, unit not repeated.

## Task Entry CC(C)C(=O)/C=C/c1ccc(Br)cc1 has what growth inhibition?
## Result 24.9

## Task I have this compound here, COC1(OC)c2no[n+]([O-])c2C(OC)(OC)c2c1no[n+]2[O-] , and I need its recorded growth inhibition.
## Result -4.35

## Task Entry C=Cc1c(C)c(OC)cc2c1Oc1ccc(OC)c(C)c1CC2 has what growth inhibition?
## Result -23.6
